- measurementTarget: human Edg-1(S1P1) (Homo sapiens)
- Construct: expressed in transfected cells; host or cells: HEK-293
- Sequence (P21453 whole entry): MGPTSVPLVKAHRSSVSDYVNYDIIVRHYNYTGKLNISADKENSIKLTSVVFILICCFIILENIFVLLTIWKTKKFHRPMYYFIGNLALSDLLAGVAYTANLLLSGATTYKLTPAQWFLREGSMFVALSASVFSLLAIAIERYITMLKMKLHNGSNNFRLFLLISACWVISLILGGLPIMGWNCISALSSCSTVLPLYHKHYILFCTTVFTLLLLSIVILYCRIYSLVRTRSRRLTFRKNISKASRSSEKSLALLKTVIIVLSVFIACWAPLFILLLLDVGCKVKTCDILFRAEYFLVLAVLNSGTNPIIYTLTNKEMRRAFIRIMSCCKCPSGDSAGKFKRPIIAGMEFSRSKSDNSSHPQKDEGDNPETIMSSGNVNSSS
- procedureText: Membrane system binding test: inhibition of [33P]-S1P binding to the membrane fraction of Edg-1(S1P1) gene transferred HEK-293 cells
- appliedConditions: 10 μM compound; [33P]-S1P 0.1 nM; membrane fraction of Edg-1(S1P1) gene transferred HEK-293 cells; read-out: Membrane system binding test % inhibition (10 μM)
Could you please report measured inhibition at 10 µM for the items listed next?
Respond numerically; units are % and should not be typed.

Sample CCn1c(OCCCOC)nnc1[C@@H](C)NS(=O)(=O)c1ccc(Cl)cc1 ; inhibition at 10 µM observed: 93.5

Sample CCOc1nnc([C@@H](C)NS(=O)(=O)c2cccc(OC)c2)n1CC ; inhibition at 10 µM observed: 64.8

Sample CCCC(CCC)Sc1nnc([C@@H](C)NS(=O)(=O)c2ccc(Cl)cc2)n1CC ; inhibition at 10 µM observed: 74.3

Sample CCOc1nnc([C@@H](C)NS(=O)(=O)c2ccc(C)c(Cl)c2)n1CC ; inhibition at 10 µM observed: 90
